test system: human LPS treated DCs; assay: Cytokine secretion of human DCs (multiplex assay); assay type: cell-based; conditions: with LPS 0.1 μg/ml
Parameter: Ratio IL-10/IL-12. Scope: all listed entries.
measuredAttribute: Ratio IL-10/IL-12

compound="N[C@H](Cc1c[nH]c2ccccc12)C(=O)O [D-tryptophan]" measuredattribute="Ratio IL-10/IL-12" valuemeasured=0.232
compound="N[C@@H](Cc1c[nH]c2ccccc12)C(=O)O [L-Trp, L-Tryptophan]" measuredattribute="Ratio IL-10/IL-12" valuemeasured=0.002
compound="O=C(O)[C@H]1CCCN1 [D-proline]" measuredattribute="Ratio IL-10/IL-12" valuemeasured=0.002
compound="O=C(O)[C@@H]1CCCN1 [L-Pro, L-Prolin]" measuredattribute="Ratio IL-10/IL-12" valuemeasured=0.003
